Source of measurements: patent US20100068150A1

Field: Ki(app) Caspase-3. Provide a value for each of the compounds that follow.
Assayed System: Caspase-3 (Homo sapiens)
Sequence (P42574 29-175 limits assumed): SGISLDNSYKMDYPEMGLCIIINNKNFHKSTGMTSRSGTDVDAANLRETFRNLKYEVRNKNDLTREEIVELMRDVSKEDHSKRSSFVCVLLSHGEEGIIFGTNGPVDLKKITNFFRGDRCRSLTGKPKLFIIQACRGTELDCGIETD
Sequence (P42574 176-277 limits assumed): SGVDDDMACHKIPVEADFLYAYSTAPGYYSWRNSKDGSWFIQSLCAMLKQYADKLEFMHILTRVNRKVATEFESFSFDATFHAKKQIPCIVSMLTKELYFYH
Test Description: Kinetic compound screening, progress curve method, caspase-3
Format: biochemical
Conditions: Table III; Ki(app) = Kass or Kobs/I; 5 nM active caspase-3

- Cc1cccc(C)c1C(=O)OCC(=O)[C@H](CC(=O)O)NC(=O)[C@@H](NC(=O)C(CCC(=O)O)NC(=O)[C@H](Cc1ccc2ccccc2c1)NC(=O)Cc1ccc(O)c([N+](=O)[O-])c1)C(C)C (stereo partly drawn): 781,733 M^−1s^−1
- Cc1ccc(C[C@H](NC(=O)[C@H](CC(=O)O)NC(=O)Cc2ccc(O)c([N+](=O)[O-])c2)C(=O)N[C@H](C(=O)N[C@@H](CC(=O)O)C(=O)COC(=O)c2c(C)cccc2C)C(C)C)cc1: 5,652,900 M^−1s^−1
- Cc1cccc(C)c1C(=O)OCC(=O)[C@H](CC(=O)O)NC(=O)[C@@H](NC(=O)[C@H](CCC(=O)O)NC(=O)[C@H](Cc1ccc(I)cc1)NC(=O)Cc1ccc(O)c([N+](=O)[O-])c1)C1Cc2ccccc2C1: 179,086 M^−1s^−1
- Cc1cccc(C)c1C(=O)OCC(=O)[C@H](CC(=O)O)NC(=O)[C@@H](NC(=O)[C@H](CCC(=O)O)NC(=O)[C@H](Cc1ccc(I)cc1)NC(=O)Cc1ccc(O)c([N+](=O)[O-])c1)C(C)O (stereo partly drawn): 216,040 M^−1s^−1
- Cc1cccc(C)c1C(=O)OCC(=O)[C@H](CC(=O)O)NC(=O)[C@@H](NC(=O)[C@@H](NC(=O)[C@H](CC(=O)O)NC(=O)Cc1ccc(O)c([N+](=O)[O-])c1)c1ccccc1)C(C)C: 3,416,050 M^−1s^−1
- Cc1cccc(C)c1C(=O)OCC(=O)[C@H](CC(=O)O)NC(=O)[C@@H](NC(=O)[C@H](Cc1ccccn1)NC(=O)[C@H](Cc1ccc2ccccc2c1)NC(=O)Cc1ccc(O)c([N+](=O)[O-])c1)C(C)C: 484,495 M^−1s^−1
- CCC(C)C(NC(=O)Cc1ccc(O)c([N+](=O)[O-])c1)C(=O)N[C@@H](CC(C)C)C(=O)N[C@@H](C)C(=O)N[C@@H](CC(=O)O)C(=O)COC(=O)c1c(C)cccc1C (stereo partly drawn): 261,470 M^−1s^−1
- Cc1cccc(C)c1C(=O)OCC(=O)[C@H](CC(=O)O)NC(=O)[C@@H](NC(=O)[C@H](CCC(=O)O)NC(=O)[C@H](CC(C)C)NC(=O)Cc1ccc(O)c([N+](=O)[O-])c1)C(C)O (stereo partly drawn): 127,835 M^−1s^−1

The reported Ki(app) Caspase-3 of the compound Cc1cccc(C)c1C(=O)OCC(=O)[C@H](CC(=O)O)NC(=O)[C@H](C)NC(=O)[C@H](CC(C)C)NC(=O)C1CCCN1C(=O)Cc1ccc([N+](=O)[O-])c(O)c1 (stereo partly drawn) was 46,108 M^−1s^−1

###

Assayed System: Caspase-3 (Homo sapiens, UniProt P42574)
Sequence (P42574 29-175 limits assumed): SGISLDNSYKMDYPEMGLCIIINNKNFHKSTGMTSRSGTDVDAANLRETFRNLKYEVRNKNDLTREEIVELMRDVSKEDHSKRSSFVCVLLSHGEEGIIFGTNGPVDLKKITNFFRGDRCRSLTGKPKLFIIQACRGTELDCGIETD
Sequence (P42574 176-277 limits assumed): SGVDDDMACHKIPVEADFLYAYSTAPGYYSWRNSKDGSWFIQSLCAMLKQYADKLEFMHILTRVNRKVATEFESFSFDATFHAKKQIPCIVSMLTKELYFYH
Test Description: Kinetic compound screening, progress curve method, caspase-3
Format: biochemical
Conditions: Table III; Ki(app) = Kass or Kobs/I; 5 nM active caspase-3
Residues, ends and D or L forms follow the SMILES beside them. *: point of attachment. Cbz = O=C(OCc1ccccc1)*; CH2F = FC*
Result Type: Ki(app) Caspase-3

Record excerpt, results attached:
* COC(=O)C[C@H](NC(=O)[C@H](C)NC(=O)[C@@H](NC(=O)OCc1ccccc1)C(C)C)C(=O)CF [ZVAD-fmk, reference compound] (Cbz-Val-Ala-Asp(OMe)-CH2F) | 25922 M⁻¹ s⁻¹
* Cc1cccc(C)c1C(=O)OCC(=O)[C@H](CC(=O)O)NC(=O)[C@@H](NC(=O)[C@H](CCC(=O)O)NC(=O)[C@H](CC(=O)O)NC(=O)Cc1ccc(O)c([N+](=O)[O-])c1)C(C)C [AB09, Np-D-E- V-D-DMBA] | 10,922,261 M^−1s^−1
* CCC(C)C(NC(=O)Cc1ccc(O)c([N+](=O)[O-])c1)C(=O)NC(Cc1ccccc1)C(=O)N1CCCC1C(=O)N[C@@H](CC(=O)O)C(=O)COC(=O)c1c(C)cccc1C (stereo partly drawn) [AB42, NP-I-F- P-D-AOMK] | 892,045 M^−1s^−1

State recorded Ki(app) Caspase-3 for all listed compounds.
1. Cc1cccc(C)c1C(=O)OCC(=O)[C@H](CC(=O)O)NC(=O)[C@@H](NC(=O)[C@H](Cc1ccncc1)NC(=O)[C@H](CC(=O)O)NC(=O)Cc1ccc(O)c([N+](=O)[O-])c1)C(C)C [AB06, Np-D-3-V-D-DMBA]
2. Cc1cccc(C)c1C(=O)OCC(=O)[C@H](CC(=O)O)NC(=O)C1CCCN1C(=O)[C@@H](CCC(=O)O)NC(=O)[C@H](CC(=O)O)NC(=O)Cc1ccc(O)c([N+](=O)[O-])c1 (stereo partly drawn) [AB11, NP-D-E- P-D-DMBA]

7,456,511 M^−1s^−1
2,482,333 M^−1s^−1

State recorded Ki(app) Caspase-3 for all listed compounds.
1. CC[C@H](NC(=O)[C@@H](CCC(=O)O)NC(=O)c1ccccc1N)C(=O)N[C@@H](CC(=O)O)C(=O)COC(=O)c1c(C)cccc1C [AB28, NH2-6-E-8-D-DMBA]
2. Cc1ccc(C[C@H](NC(=O)Cc2ccc(O)c([N+](=O)[O-])c2)C(=O)N[C@@H](CCC(=O)O)C(=O)N[C@H](C(=O)N[C@@H](CC(=O)O)C(=O)COC(=O)c2c(C)cccc2C)C(C)O)cc1 (stereo partly drawn) [AB20, Np-29-E-T-D-DMBA]
3. Cc1cccc(C)c1C(=O)OCC(=O)[C@H](CC(=O)O)NC(=O)[C@H](Cc1cc[nH]c1)NC(=O)[C@H](CCC(=O)O)NC(=O)[C@H](CC(C)C)NC(=O)Cc1ccc(O)c([N+](=O)[O-])c1 [AB07, Np-L-E- H-D-DMBA]
4. CCC(C)C(NC(=O)Cc1ccc(O)c([N+](=O)[O-])c1)C(=O)N[C@@H](CC(C)C)C(=O)N1CSCC1C(=O)N[C@@H](CC(=O)O)C(=O)COC(=O)c1c(C)cccc1C (stereo partly drawn) [AB41, Np-I-L-38-D-AOMK]

1: 1,020,213 M^−1s^−1; 2: 570,900 M^−1s^−1; 3: 75,295 M^−1s^−1; 4: 1,582,350 M^−1s^−1

###

Assayed System: Caspase-8 (Homo sapiens)
Sequence (Q14790 217-479): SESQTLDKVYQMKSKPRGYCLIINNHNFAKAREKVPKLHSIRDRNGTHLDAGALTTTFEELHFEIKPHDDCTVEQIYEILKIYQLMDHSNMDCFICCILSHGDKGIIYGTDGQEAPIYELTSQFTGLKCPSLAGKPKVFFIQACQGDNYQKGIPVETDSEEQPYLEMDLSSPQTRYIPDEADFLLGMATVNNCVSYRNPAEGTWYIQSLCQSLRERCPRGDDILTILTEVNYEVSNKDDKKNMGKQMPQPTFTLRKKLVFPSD
Test Description: Kinetic compound screening, progress curve method, caspase-8
Assay type: biochemical
Conditions: Table III; Ki(app) = Kass or Kobs/I; 10 nM active caspase-8
Residues, ends and D or L forms follow the SMILES beside them. *: point of attachment. Cbz = O=C(OCc1ccccc1)*; CH2F = FC*
Result Type: Ki(app) Caspase-8

Record excerpt, results attached:
* COC(=O)C[C@H](NC(=O)[C@H](C)NC(=O)[C@@H](NC(=O)OCc1ccccc1)C(C)C)C(=O)CF [ZVAD-fmk, reference compound] (Cbz-Val-Ala-Asp(OMe)-CH2F) | 203286 M⁻¹ s⁻¹
* CCC(C)C(NC(=O)Cc1ccc(O)c([N+](=O)[O-])c1)C(=O)NC(Cc1ccccc1)C(=O)N1CCCC1C(=O)N[C@@H](CC(=O)O)C(=O)COC(=O)c1c(C)cccc1C (stereo partly drawn) | 22,544 M^−1s^−1
* Cc1cccc(C)c1C(=O)OCC(=O)[C@H](CC(=O)O)NC(=O)[C@@H](NC(=O)C(CCC(=O)O)NC(=O)[C@H](Cc1ccc2ccccc2c1)NC(=O)Cc1ccc(O)c([N+](=O)[O-])c1)C(C)C (stereo partly drawn) | 126,323 M^−1s^−1
* Cc1cccc(C)c1C(=O)OCC(=O)[C@H](CC(=O)O)NC(=O)[C@@H](NC(=O)[C@@H](NC(=O)[C@H](CC(=O)O)NC(=O)Cc1ccc(O)c([N+](=O)[O-])c1)c1ccccc1)C(C)C | <5,000 M^−1s^−1
* Cc1cccc(C)c1C(=O)OCC(=O)[C@H](CC(=O)O)NC(=O)[C@@H](NC(=O)[C@H](Cc1ccncc1)NC(=O)[C@H](CC(=O)O)NC(=O)Cc1ccc(O)c([N+](=O)[O-])c1)C(C)C | 32,909 M^−1s^−1

State recorded Ki(app) Caspase-8 for all listed molecules.
1. Cc1cccc(C)c1C(=O)OCC(=O)[C@H](CC(=O)O)NC(=O)[C@@H](NC(=O)[C@H](CCC(=O)O)NC(=O)[C@H](CC(=O)O)NC(=O)Cc1ccc(O)c([N+](=O)[O-])c1)C(C)C
2. Cc1cccc(C)c1C(=O)OCC(=O)[C@H](CC(=O)O)NC(=O)[C@@H](NC(=O)[C@H](CCC(=O)O)NC(=O)[C@H](Cc1ccc(I)cc1)NC(=O)Cc1ccc(O)c([N+](=O)[O-])c1)C1Cc2ccccc2C1

1. 1,077,839 M^−1s^−1
2. 396,225 M^−1s^−1

State recorded Ki(app) Caspase-8 for all listed molecules.
1. Cc1cccc(C)c1C(=O)OCC(=O)[C@H](CC(=O)O)NC(=O)[C@@H](NC(=O)[C@H](CCC(=O)O)NC(=O)[C@H](CC(C)C)NC(=O)Cc1ccc(O)c([N+](=O)[O-])c1)C(C)O (stereo partly drawn)
2. CCC(C)C(NC(=O)Cc1ccc(O)c([N+](=O)[O-])c1)C(=O)N[C@@H](CC(C)C)C(=O)N[C@@H](C)C(=O)N[C@@H](CC(=O)O)C(=O)COC(=O)c1c(C)cccc1C (stereo partly drawn)

["599,788 M^−1s^−1", "35,174 M^−1s^−1"]
